Reported pIC50 values follow for various compounds
- TARGET OR TEST SYSTEM: Acetylcholinesterase (Electrophorus electricus)
- Sequence (O42275 whole entry): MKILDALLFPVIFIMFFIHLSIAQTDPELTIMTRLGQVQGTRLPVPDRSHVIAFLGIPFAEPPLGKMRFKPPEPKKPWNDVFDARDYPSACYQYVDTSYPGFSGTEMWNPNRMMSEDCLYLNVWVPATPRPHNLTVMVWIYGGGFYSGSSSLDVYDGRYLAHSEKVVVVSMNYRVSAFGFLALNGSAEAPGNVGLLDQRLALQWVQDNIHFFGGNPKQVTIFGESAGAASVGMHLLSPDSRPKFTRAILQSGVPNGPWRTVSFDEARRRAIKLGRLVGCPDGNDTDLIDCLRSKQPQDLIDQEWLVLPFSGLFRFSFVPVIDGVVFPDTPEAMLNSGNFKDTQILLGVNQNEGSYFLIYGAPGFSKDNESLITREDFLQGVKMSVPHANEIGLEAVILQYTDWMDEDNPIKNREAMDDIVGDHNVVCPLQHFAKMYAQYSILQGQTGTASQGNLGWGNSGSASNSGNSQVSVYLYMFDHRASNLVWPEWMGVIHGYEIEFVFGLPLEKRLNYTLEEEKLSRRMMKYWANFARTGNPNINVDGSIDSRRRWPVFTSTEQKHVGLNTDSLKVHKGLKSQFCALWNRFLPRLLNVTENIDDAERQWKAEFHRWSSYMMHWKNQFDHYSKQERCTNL
- ASSAY EXPLANATION: Inhibition of electric eel AChE using acetylthiocholine chloride by spectrophotometry
Quick note: pIC50 values are minus log10 of concentrations in mol/L.

Would you please look over these solved cases?
COc1cc2c(cc1OC)C(NC(=O)CN1CCN(Cc3ccccc3F)CC1)c1cnn(C)c1-2 (configuration not stated); 6.14
COc1cc2c(cc1OC)C(NC(=O)CN1CCN(Cc3ccccc3F)CC1)c1cnn(-c3ccccc3)c1-2 (configuration not stated); 6.68
O=C(CN1CCN(Cc2ccccc2F)CC1)NC1c2cn[nH]c2-c2c(Br)sc(Br)c21 (configuration not stated); 5.34
COc1cc2c(cc1OC)C(NC(=O)CN1CCN(Cc3ccccc3)CC1)c1cn[nH]c1-2 (configuration not stated); 5.53
O=C(CN1CCN(Cc2ccccc2)CC1)NC1c2cn[nH]c2-c2c(Br)sc(Br)c21 (configuration not stated); 5.05

The compound identified as Cn1ncc2c1-c1sccc1C2NC(=O)CN1CCN(Cc2ccccc2F)CC1 (configuration not stated) registered its pIC50 at 5.88

So, O=C(CN1CCN(Cc2ccccc2F)CC1)NC1c2ccsc2-c2c1cnn2-c1ccccc1 (configuration not stated) ? Its pIC50 was 5.39
